Answer each item with its documented logP.
- TEST: Lipophilicity, log P of the compound by HPLC analysis
- Format: physicochemical
One number for each entry.

>  <COMPOUND>
O=C1/C(=C\c2ccccc2)C(c2ccccc2)Oc2ccccc21 (centres undefined)

>  <NUMBER>
3.9

$$$$

Parameter requested: logP. Apply to each item below.
1. O=C1/C(=C/c2ccc(O)cc2)COc2ccccc21
2. O=C1/C(=C\c2ccccc2)COc2ccccc21
3. O=C1/C(=C/c2ccccc2)COc2ccccc21

1. 3.1
2. 2.89
3. 3.07

====

Answer each item with its documented pIC50.
- Tested on: NALM-6
- TEST: Cytotoxicity against human NALM6 cells after 46 hrs by MTT assay
- Assay type: functional, cell-based
- SETTINGS: NALM-6, 46 h
Give bare numbers, as −log10 of the molar value.

Worked examples, 8 compounds total:
>  <COMPOUND>
O=C1/C(=C/c2ccccc2)C(c2ccccc2)Oc2ccccc21 (stereo not given)

>  <pIC50>
4.53

$$$$
>  <COMPOUND>
O=C1/C(=C\c2ccncc2)C(c2ccccc2)Oc2ccccc21 (stereo not given)

>  <pIC50>
6.15

$$$$
>  <COMPOUND>
O=C1/C(=C\c2ccccc2)COc2ccccc21

>  <pIC50>
5.26

$$$$
>  <COMPOUND>
O=c1c(Cc2cccc(O)c2)coc2ccccc12

>  <pIC50>
5.14

$$$$
>  <COMPOUND>
O=c1c(Cc2ccc(O)cc2)coc2ccccc12

>  <pIC50>
4.30

$$$$
>  <COMPOUND>
Cc1ccc(/C=C2/C(=O)c3ccccc3OC2c2ccccc2)cc1 (stereo not given)

>  <pIC50>
4.29

$$$$
>  <COMPOUND>
O=C1CCOc2ccccc21

>  <pIC50>
3.17

$$$$
>  <COMPOUND>
O=C1CC(c2ccccc2)Oc2ccccc21 (stereo not given)

>  <pIC50>
4.24

$$$$

Parameter requested: pIC50. Apply to each item below.
1. O=C1/C(=C/c2ccc(Cl)cc2)C(c2ccccc2)Oc2ccccc21 (stereo not given)
2. O=C1C[C@@H](c2ccc(O)cc2)Oc2cc(O)cc(O)c21
3. O=C1/C(=C/c2ccncc2)C(c2ccccc2)Oc2ccccc21 (stereo not given)

1. 5.13
2. 3.37
3. 5.80
